assay: Critical micelle concentration and surface tension measurement (tensiometer, Pt plate); assay type: physicochemical; settings: room temperature, DI water (calibrated to 72.7±0.2 mN/m)
Measurement Type: γmin (mN/m)

> print(dat)
                                   compound  measurement.type  unit.abbrev  reported.measurement
1  CCCCCCCCCCC/C=C/C(=O)C[C@@H]1O[C@H](CO)[C@@H](O)[C@H](O)[C@H]1O              γmin         mN/m                    28
2  CCCCCC1CC(=O)C([C@@H]2O[C@H](CO)[C@@H](O)[C@H](O)[C@H]2O)=CC1CCCC (stereo partly shown)              γmin         mN/m                    22
3  CCCCC/C=C/C(=O)C[C@@H]1O[C@H](CO)[C@@H](O)[C@H](O)[C@H]1O              γmin         mN/m                    24
4  CCCC1CC(=O)C([C@@H]2O[C@H](CO)[C@@H](O)[C@H](O)[C@H]2O)=CC1CC (stereo partly shown)              γmin         mN/m                    30

###

assay: Critical micelle concentration and surface tension measurement (tensiometer, Pt plate); type: physicochemical; settings: room temperature, DI water
Recorded CMC values for a group of molecules are listed next.
Measurement Type: CMC

> print(dat)
                                   molecule  reported.measurement
1  CCCCC/C=C/C(=O)C[C@@H]1O[C@H](CO)[C@@H](O)[C@H](O)[C@H]1O                3.9 mM
2  CCCCCCCCCCC/C=C/C(=O)C[C@@H]1O[C@H](CO)[C@@H](O)[C@H](O)[C@H]1O                0.1 mM
3  CCCC1CC(=O)C([C@@H]2O[C@H](CO)[C@@H](O)[C@H](O)[C@H]2O)=CC1CC (stereo partly shown)               52.2 mM
4  CCCCCC1CC(=O)C([C@@H]2O[C@H](CO)[C@@H](O)[C@H](O)[C@H]2O)=CC1CCCC (stereo partly shown)               0.17 mM

Reference for the values: patent US9096630B2
